Recorded Abs.max., first of two maxima (subsidiary maximum) for the following molecules
test: Absorption maximum after colour development in a photographic silver halide layer according to Use Example I; assay type: physicochemical; settings: pyrazolone coupling agents
Quick note: unit goes after the number.

molecule	measured value
CCCCC(CC)COP(=O)(CCCOc1cccc(C(=O)Nc2ccc(NC3=NN(c4ccccc4)C(=O)C3)cc2)c1)OCC(CC)CCCC (stereo not shown) [(420)]	428 nm
CCCCOP(=O)(CCCOc1cc(OCCCP(=O)(OCCCC)OCCCC)cc(C(=O)Nc2cccc(C(=O)NC3=NN(c4c(Cl)cc(Cl)cc4OC)C(=O)C3)c2)c1)OCCCC [(265)]	436 nm
CCCCC(CC)COP(=O)(CCCOc1cccc(C(=O)Nc2cccc(C(=O)NC3=NN(c4c(Cl)cc(OC)cc4Cl)C(=O)C3)c2)c1)OCC(CC)CCCC (stereo not shown) [(267)]	436 nm
CCCCOP(=O)(CCCOc1cc(OCCCP(=O)(OCCCC)OCCCC)cc(C(=O)NC2=NN(c3nc4ccccc4s3)C(=O)C2)c1)OCCCC [(257)]	430 nm
CCOP(=O)(CCCOc1cccc(C(=O)Nc2cccc(NC3=NN(c4c(Cl)cc(Cl)cc4Cl)C(=O)C3)c2)c1)OCC [(415)]	426 nm

Quick one: Abs.max., first of two maxima (subsidiary maximum) for CCOP(=O)(CCCOc1ccc(C(=O)Nc2ccc(C(=O)NC3=NN(c4c(Cl)cc(Cl)cc4Cl)C(=O)C3)cc2)cc1)OCC [(203)] ?
434 nm

Could you do the same for CCOP(=O)(CCCc1ccc(NC2=NN(c3ccccc3)C(=O)C2)cc1)OCC [(407)] , please?
429 nm

Data origin, for the record: patent US3984432A
